Measurement Target: Voltage-gated potassium channel subunit beta-2 (Rattus norvegicus) (UniProt P62483)
Sequence (P62483 whole entry, looked up): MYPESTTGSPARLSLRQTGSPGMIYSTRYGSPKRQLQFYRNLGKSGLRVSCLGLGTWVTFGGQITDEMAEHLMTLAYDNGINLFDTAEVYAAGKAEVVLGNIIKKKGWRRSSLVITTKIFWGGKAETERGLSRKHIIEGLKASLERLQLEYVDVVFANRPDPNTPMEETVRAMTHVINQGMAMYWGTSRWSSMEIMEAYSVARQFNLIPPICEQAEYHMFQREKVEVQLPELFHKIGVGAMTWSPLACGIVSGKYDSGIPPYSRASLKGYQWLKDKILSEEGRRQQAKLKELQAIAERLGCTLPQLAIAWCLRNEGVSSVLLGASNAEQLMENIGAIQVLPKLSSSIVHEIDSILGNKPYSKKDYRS
Test Method Notes: KvBeta enzyme negative modulators, primary screen, biochemical, NADPH fluorescence (AID 622);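 further: slope of raw intensity against log time taken from 70 to 1610 s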
Reported Conditions: recombinant KvBeta, 4-cyanobenzaldehyde reduction, at 10 µM, stronger effect = higher value
Quick rule for you: fluorescence slope at -0.4 or higher means fulfilled, lower means not fulfilled.

Task item: API: above_or_equal(metric=fluorescence slope, cutoff=-0.4) for item Cc1ccc(C2C3CN(C(C)C)CC=C3C(C#N)=C(N)C2(C#N)C#N)cc1 (stereo not given)
Reply: fulfilled

Task item: Queued: Cn1cc(C(=O)NCN2CCCCC2)c2ccccc21
Reply: not fulfilled

Task item: Moving on to O=C(O)c1ccccc1S
Reply: not fulfilled

Task item: Likewise for COc1cc(C)nc(Oc2ccc(OCCOc3ccc(C)cc3)nn2)n1 ?
Reply: not fulfilled

Task item: Okay, and CC1(C)Cc2c(c(-c3ccccc3)nc3[nH][nH]c(=O)c23)CO1 ?
Reply: not fulfilled

====

For each entry below, report its inhibition value.
Test Method Notes: inhibitors of TNFa-induced NFkB p65 translocation, primary screen, imaging, HUVEC, MLSMR starter and 10KST1 sets (AID 438);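 further: compound added about 3h40 before a 20 min TNFalpha stimulation; signal is the nuclear over cytoplasmic p65 intensity ratio per well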
Reported Conditions: HUVEC TNFa-induced p65 nuclear translocation; at 2 µM, stronger effect = higher value, 0% TNFa-plus-vehicle, 100% no-TNFa wells
Activity calls are given as the source filed them.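 Rule for the calls: active = inhibition above 20% together with a positive visual image hit; inconclusive = visual image hit but inhibition not above 20%; inactive = no visual image hit.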

Task item: Return reported inhibition; argument: Cc1oc2nc(SCCCC(=O)NCCCO)nc(N)c2c1C
Reply: -4.5% (inactive)

Task item: Next entry: C=CCN(C(=O)CCC(=O)O)C1CC(=O)N(c2ccc(OCCC)cc2)C1=O (centres undefined)
Reply: -10.8% (inactive)

Task item: Try this compound too: CCc1ccc(NC(=O)CSC2=C(C#N)C(c3ccco3)C3=C(CCCC3=O)N2)cc1 (centres undefined)
Reply: -1.3% (inactive)

Task item: Entry to check: O=C(CCCN1CC=C(n2c(=O)[nH]c3ccccc32)CC1)c1ccc(F)cc1
Reply: -2.1% (inactive)

Task item: Same lookup for COC(=O)Nc1nc2ccc(Sc3ccccc3)cc2[nH]1 , please.
Reply: 4.6% (inactive)

Task item: Follow-up item: Cc1ccc(SCc2c(C#N)c3ccccc3n2C)cc1
Reply: -2.4% (inactive)

Task item: Item: Nc1nc2ccc(OC(F)(F)F)cc2s1
Reply: -0.5% (inactive)

Task item: CCOc1cccc(-c2nnc3sc(-c4cccs4)nn23)c1 ?
Reply: -0.1% (inactive)

Task item: And then C=C1C2(C(=O)Nc3nccs3)CCC(C2)C1(C)C (centres undefined) , what is it?
Reply: -0.5% (inactive)

====

Field: nuclei count. Provide a value for each of the compounds that follow.
Test Method Notes: inhibitors of mutant huntingtin aggregation, primary screen, imaging, exon1htt(103Q)mCFP cells, high-content imaging (AID 483);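 further: compound exposure lasted 3 days before fixation; percent of the per-plate median nuclei count of sample wells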
Reported Conditions: exon1htt(103Q)mCFP cell line, aggregate imaging, at 2 µM; measured here: cell count, toxicity
The reply should be a number in %, with the unit left off.

Task item: For the compound CCCSc1ccc2nc(NC(=O)OC)[nH]c2c1 , what nuclei count is on record?
Reply: 15.7

Task item: Here is the next compound: CC[C@]1(O)CC2CN(CCc3c([nH]c4ccccc34)[C@@](C(=O)OC)(c3cc4c(cc3OC)N(C=O)[C@H]3[C@@](O)(C(=O)OC)[C@H](OC(C)=O)[C@]5(CC)C=CCN6CC[C@]43[C@@H]65)C2)C1 (stereo partly drawn)
Reply: 1.5

Task item: Similarly, CCOC(=O)c1ccc(CC2S/C(=C(\C#N)C(C)=O)NC2=O)cc1 (stereo not drawn) ?
Reply: 100

Task item: And the next one, CC1=C(C)C(=O)C(CCCCC#CCCCC#CCO)=C(C)C1=O ?
Reply: 95.5

Task item: Further, for Cc1cc(/C=N\O)c(C)n1-c1ccncc1 ?
Reply: 92.6

Task item: Another compound: NC(N)=NC(=O)c1nc(Cl)c(N)nc1N
Reply: 103

Task item: Query Cc1ccc(-c2nnc(-c3cccc(Br)c3)o2)cc1 next
Reply: 96.1

Task item: Would you kindly repeat that for CCN(CC)CCCN1C(=O)C(=O)/C(=C(/O)c2ccc(C)cc2)C1c1ccccn1 (stereo not drawn) ?
Reply: 134

Task item: Quick one: Cc1cc(C)n(C(=O)CNC(=O)C2COc3ccccc3O2)n1 (stereo not drawn)
Reply: 105

Task item: Cc1nc2c(o1)CCc1ccccc1C2O (stereo not drawn) ?
Reply: 106

Task item: CCCC(=O)N(Cc1cc2ccccc2[nH]c1=O)c1ccccc1OC ?
Reply: 94.8

Task item: How about CC(C)(Oc1ccc(CCNC(=O)c2ccc(Cl)cc2)cc1)C(=O)O ?
Reply: 107

Task item: Consider next the compound COc1ccc(Cn2c(N)c(C#N)c3nc4ccccc4nc32)cc1OC in the same way.
Reply: 100

Task item: Consider next the compound CCCCOc1ccc(C(=O)Nn2cnnc2)cc1 in the same way.
Reply: 96.9

Task item: Also, CC(C)NCC(O)COc1ccc(CCOCC2CC2)cc1 (stereo not drawn) please.
Reply: 102

Task item: How about c1ccc(Cc2nnc3n2CCCCC3)cc1 ?
Reply: 104

Task item: Lookup O=C(NCCO)c1cccc2c1C(=O)c1ccccc1-2
Reply: 91.4

Task item: Same read-out for Cc1c(O)c(CN2CCCC(C)C2)cc2c3c(c(=O)oc12)CCC3 (stereo not drawn) ?
Reply: 102

====

Test Method Notes: inhibitors of Sendai virus-induced IRF3 signaling, primary screen, TLR/RLR signaling modifier project, cell-based, Sendai virus stimulus, luciferase, 10K MLSCN set (AID 602276);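 further: firefly luciferase from ISG56 promoter only with Renilla not read in this screen; 0% = Sendai virus plus DMSO and 100% = medium plus DMSO without virus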
Reported Conditions: HEK293 RL24 IRF3 luciferase reporter, at 10 µM, stronger effect = higher value
Exercise: for every item that follows, state its recorded inhibition.
Record the value in %, omitting the unit from your answer.

Task item: So what does the record say about inhibition for CCN(CC)CCOC(=O)C1(c2ccc(OC)c(OC)c2)CCCC1 ?
Reply: 13.2

Task item: Same thing, different molecule: COCc1cc(=O)[nH]c(Nc2nc3ccccc3o2)n1
Reply: -29.5

Task item: Cool, now COc1ccc(C2/C(=C(/O)c3cnn(-c4ccccc4)c3C)C(=O)C(=O)N2CCN(C)C)cc1OC (stereo not given)
Reply: 2.76

Task item: Now consider Oc1c(I)cc(I)c2cccnc12 .
Reply: 12.4

Task item: Please give the result for CC(NCCc1ccc(O)cc1)C(O)c1ccc(O)cc1 (stereo not given) too.
Reply: 7.45

Task item: Repeat for the following molecule: COc1ccccc1N=Cc1nc(-c2ccccc2)oc1OC(C)=O
Reply: 18.8

Task item: Check Clc1ccc(Cl)c(-c2ccc(/C=N/c3ncn[nH]3)o2)c1 too.
Reply: 13.4

Task item: Next record, please: COc1ccc(C2/C(=C(/O)c3ccc(OC(C)C)cc3)C(=O)C(=O)N2CCCN2CCOCC2)cc1 (stereo not given)
Reply: 9.78

Task item: Here is the next molecule: CN(C(=O)C(Cl)Cl)c1ccc(OC(=O)c2ccco2)cc1
Reply: 21.3

Task item: Next: Cc1c(O)c(CN2CCCC(C)C2)cc2c3c(c(=O)oc12)CCC3 (stereo not given)
Reply: 13.6

Task item: Then Cc1[nH]nc2c1C(CCc1ccccc1)C(C#N)=C(N)O2 (stereo not given) ?
Reply: -8.58

Task item: Next record, please: CC(C)Oc1ccc2c(=O)c(-c3ccccc3)coc2c1
Reply: -37.9

Task item: Repeat with CC(=Nc1cccc(O)c1)c1sc2ccccc2c1O
Reply: -6

Task item: Also CCN(CC)CCN1C(=O)C(=O)/C(=C(/O)c2c(C)[nH]c(C(=O)OC)c2C)C1c1ccco1 (stereo not given) ?
Reply: 4.22

Task item: Lookup CC(=O)[C@@]1(O)CC[C@H]2[C@@H]3C[C@H](C)C4=CC(=O)CC[C@]4(C)[C@H]3CC[C@@]21C
Reply: -4.16

Task item: Similarly, CNC(=O)CC(C(=O)O)c1ccc(OC(C)C)cc1 (stereo not given) ?
Reply: 12.9

Task item: Item: COc1ccc(C(=O)Cn2c(N3CCCCC3)nc3c2c(=O)n(C)c(=O)n3C)cc1OC
Reply: 14.5

Task item: Please do the same for CCOC(=O)CC(=O)CSc1[nH]c(=O)cc(C)c1C#N as well.
Reply: 3.57

Task item: Can you check CC1(C)CNC(=O)c2sc(N3CCOCC3)nc2C1 next?
Reply: 17.2

Task item: Now the molecule O=C1NC(c2cccs2)Nc2ccccc21 (stereo not given)
Reply: -3

Task item: Same question, CN(C=C1C(=O)CC(C)(C)CC1=O)CCN1CCNCC1 this time
Reply: 14.6

Task item: Ok, now COc1ccccc1OCC(O)COC(N)=O (stereo not given)
Reply: 9.33

Task item: And for CCN(CC)CCNC(=O)c1cc(S(C)(=O)=O)ccc1OC ?
Reply: 21.3

Task item: Note, next up: O=C(NO)c1ccccc1O
Reply: 5.89

Task item: // same read-out, input: CCOC(=O)c1ccc2nc(NC(NC(C)=O)(C(=O)OC)C(F)(F)F)sc2c1 (stereo not given)
Reply: 133

Task item: Record: CC(=O)C1=C(O)C(=O)N(c2ccc(C(=O)O)cc2)C1c1ccccc1 (stereo not given)
Reply: 16.8

Task item: Consider next the molecule CCN(CC)c1ccc(-c2nn3c(-c4cccnc4)nnc3s2)cc1 in the same way.
Reply: 49.1

Task item: Next: Cn1nnnc1SCC1=C(C(=O)O)N2C(=O)[C@@H](NC(=O)[C@H](O)c3ccccc3)[C@H]2SC1
Reply: 10.3

Task item: Another molecule: CCCOc1cccc(C2/C(=C(/O)c3ccccc3)C(=O)C(=O)N2CCN(C)C)c1 (stereo not given)
Reply: 15.1

Task item: Please give the result for CN(C)CCC=C1c2ccccc2CCc2ccccc21 too.
Reply: -9.05

Task item: Record: CC1CCc2cc(F)cc3c(O)c(C(=O)Nc4cnccn4)c(=O)n1c23 (stereo not given)
Reply: 13.2

Task item: Next record, please: CCCC1Cc2c(sc3ncnc(N)c23)CO1 (stereo not given)
Reply: -2.55

Task item: Can you handle CN1CCN(/C=N/c2sc3c(c2C#N)CCCCC3)CC1 next?
Reply: -35.3

Task item: Query CCOC(=O)C1=C[C@]2(CC)CCCN3CCc4c(n1c1ccccc41)[C@@H]32 next
Reply: 5.01

Task item: Another molecule to check: Cc1ccc(C(=O)/C=C/Nc2cccc(O)c2)cc1
Reply: 5.62

Task item: // same read-out, input: CC(C)Cc1ccc(C(C)C(=O)O)cc1 (stereo not given)
Reply: -8.48

Task item: Ok, now c1cncc(-c2nnc3sc(-c4ccco4)nn23)c1
Reply: 13.2

Task item: # repeat for CCOC(=O)CCC(=O)O[C@H]1[C@H](O[C@@H]2[C@@H](C)[C@H](O[C@H]3C[C@@](C)(OC)[C@@H](O)[C@H](C)O3)[C@@H](C)C(=O)O[C@H](CC)[C@@](C)(O)[C@H](O)[C@@H](C)C(=O)[C@H](C)C[C@@]2(C)O)O[C@H](C)C[C@@H]1N(C)C
Reply: 20.3

Task item: Then this molecule: Cc1nc2ccccc2cc1O
Reply: 17.5

Task item: Proceed to Fc1ccc(-c2cnc[nH]2)cc1
Reply: -22.9
